Each record here notes measured MIC.
System: Klebsiella pneumoniae KPN+19-15
Assay type: cell-based
experimental parameters: KPN+19-15
Bridge positions count the residues as written; N and C are the ends. Square brackets hold non-standard residues; d marks the D form. Peptide text beside a SMILES is read from it. * marks the point of attachment. Heptanoyl(6-Me) = CC(C)CCCCC(=O)*; Heptanoyl = CCCCCCC(=O)*; Octanoyl = CCCCCCCC(=O)*; Orn = NCCC[C@H](N)C(=O)O; dDap = NC[C@@H](N)C(=O)O; Dab = NCC[C@H](N)C(=O)O
The response must be a number in µg/mL with no trailing unit.

[
  {
    "compound": "CCCCCCCC(=O)N[C@@H](CCN)C(=O)N[C@H](C(=O)N[C@H](CO)C(=O)N[C@H]1CCNC(=O)[C@H]([C@@H](C)O)NC(=O)[C@H](CCN)NC(=O)[C@H](CCN)NC(=O)[C@H]([C@@H](C)O)NC(=O)[C@@H](Cc2ccccc2)NC(=O)[C@H](CCCN)NC1=O)[C@@H](C)O [Compound 68] (Octanoyl-[Dab]T[dS][Dab][Orn][dF]T[Dab][Dab]T; lactam 4-C)",
    "MIC / µg/mL": 0.5
  },
  {
    "compound": "CCCCCCC(=O)N[C@@H](CCN)C(=O)N[C@H](C(=O)N[C@H](CN)C(=O)N[C@H]1CCNC(=O)[C@H]([C@@H](C)O)NC(=O)[C@H](CCN)NC(=O)[C@H](CCN)NC(=O)[C@H]([C@@H](C)O)NC(=O)[C@@H](Cc2ccccc2)NC(=O)[C@H](CCN)NC1=O)[C@@H](C)O [Compound 4] (Heptanoyl-[Dab]T[dDap][Dab][Dab][dF]T[Dab][Dab]T; lactam 4-C)",
    "MIC / µg/mL": 0.03
  }
]

Continue with the next compound.
Requested field: MIC. Item: CC(C)CCCCC(=O)N[C@@H](CCN)C(=O)N[C@H](C(=O)N[C@H](CO)C(=O)N[C@H]1CCNC(=O)[C@H]([C@@H](C)O)NC(=O)[C@H](CCN)NC(=O)[C@H](CCN)NC(=O)[C@H]([C@@H](C)O)NC(=O)[C@@H](Cc2ccccc2)NC(=O)[C@H](CCCN)NC1=O)[C@@H](C)O [Compound 67] ({Heptanoyl(6-Me)}-[Dab]T[dS][Dab][Orn][dF]T[Dab][Dab]T; lactam 4-C)
0.5

* * *

assay explanation: Nephrotoxicity assay: in vitro cytotoxicity of HK-2 cells by CCK-8 assay
Format: cell-based
experimental parameters: human, HK-2 cells (human renal), 72 h incubation with drug-containing medium
Bridge positions count the residues as written; N and C are the ends. Square brackets hold non-standard residues; d marks the D form. Peptide text beside a SMILES is read from it. * marks the point of attachment. Heptanoyl(6-Me) = CC(C)CCCCC(=O)*; dOrn = NCCC[C@@H](N)C(=O)O; Nonanoyl = CCCCCCCCC(=O)*; dDap = NC[C@@H](N)C(=O)O; Dab = NCC[C@H](N)C(=O)O
test readout: IC50 at 72 h (µg/mL)
The response must be a number in µg/mL with no trailing unit.

[
  {
    "compound": "CCCCCCCCC(=O)N[C@@H](CCN)C(=O)N[C@H](C(=O)N[C@H](CCCN)C(=O)N[C@H]1CCNC(=O)[C@H]([C@@H](C)O)NC(=O)[C@H](CCN)NC(=O)[C@H](CCN)NC(=O)[C@H](CC(C)C)NC(=O)[C@@H](Cc2ccccc2)NC(=O)[C@H](CCN)NC1=O)[C@@H](C)O [Compound 45] (Nonanoyl-[Dab]T[dOrn][Dab][Dab][dF]L[Dab][Dab]T; lactam 4-C)",
    "result": 139
  }
]

Continue with the next compound.
Requested field: IC50 at 72 h. Item: CC(C)CCCCC(=O)N[C@@H](CCN)C(=O)N[C@H](C(=O)N[C@H](CN)C(=O)N[C@H]1CCNC(=O)[C@H]([C@@H](C)O)NC(=O)[C@H](CCN)NC(=O)[C@H](CCN)NC(=O)[C@H](CC(C)C)NC(=O)[C@@H](Cc2ccccc2)NC(=O)[C@H](CCN)NC1=O)[C@@H](C)O [Compound 32] ({Heptanoyl(6-Me)}-[Dab]T[dDap][Dab][Dab][dF]L[Dab][Dab]T; lactam 4-C)
325
